// provenance: patent US4200575A

The following molecules are listed with their measured minimal inhibitory concentration (M.I.C.) values.
Test system: C. freundii GN 1706
Assay: Minimal inhibitory concentration (M.I.C.), agar dilution method
Format: cell-based, Citrobacter freundii
Conditions: TSA, inoculum 10^7 /ml
Text: (a) Determination of minimal inhibitory concentrations (Tables 1 to 8): Procedure: agar dilution method
Outcome measure: minimal inhibitory concentration (M.I.C.)

INSERT INTO measurements (molecule, qualifier_operator, value_reported) VALUES
  ('Cc1nnc(SCC2=C(C(=O)[O-])N3C(=O)C(NC(=O)Cn4cnnn4)[C@H]3SC2)s1.[Na+] (stereo partly shown) [Cefazolin, reference compound]', '>', 100),
  ('CCCCNC(=O)O/N=C(\C(=O)NC1C(=O)N2C(C(=O)O)=C(COC(N)=O)CSC12)c1csc(=N)[nH]1 (stereo not shown) [Example II - 21]', '=', 0.78),
  ('CCCNC(=O)O/N=C(\C(=O)NC1C(=O)N2C(C(=O)O)=C(COC(N)=O)CSC12)c1csc(=N)[nH]1 (stereo not shown) [Example II - 13]', '=', 0.78),
  ('CNC(=O)O/N=C(\C(=O)NC1C(=O)N2C(C(=O)O)=C(CSc3nnc(CC(N)=O)s3)CSC12)c1csc(=N)[nH]1 (stereo not shown) [Example IV - 6]', '≤', 0.78);
